test-details: in vitro
measurement-setup: human, pH 7.4, Km, high-affinity site (Km1), BFT 5β-hydroxylation, HLM 0.25 mg protein/mL, 30 min, biphasic kinetics
parameter-measured: Km (µM)
Enter your answer as a number in µM; do not include the unit.

Measured Km of CC(=O)O[C@H]1C[C@]2(O)[C@@H]3CC[C@@H]4C[C@@H](O)CC[C@]4(C)[C@H]3CC[C@]2(C)[C@H]1c1ccc(=O)oc1 : 3.71

###

test-details: in vitro
measurement-setup: human, pH 7.4, Km, low-affinity site (Km2), BFT 5β-hydroxylation, HLM 0.25 mg protein/mL, 30 min, biphasic kinetics
parameter-measured: Km (µM)
Enter your answer as a number in µM; do not include the unit.

Measured Km of CC(=O)O[C@H]1C[C@]2(O)[C@@H]3CC[C@@H]4C[C@@H](O)CC[C@]4(C)[C@H]3CC[C@]2(C)[C@H]1c1ccc(=O)oc1 : 134
